compounds and their reported Ratio CC50/IC50
- assayNotes: Selectivity index, ratio of CC50 for mouse J774 cells to IC50 for promastigote form of Leishmania guyanensis 141/93
- Type: functional

Recorded Ratio CC50/IC50, per entry:
{"compound": "CCCCCCCCCCCCCCCCOP(=O)([O-])OCC[N+](C)(C)C [MILTEFOSINE]", "obsValue": 3.1}
{"compound": "O=C(c1ccccn1)c1cccc(-c2nnn3ccccc23)n1", "obsValue": ">2.8"}
{"compound": "O=C(c1ccccn1)c1cccc2c(-c3ccccc3)nnn12", "obsValue": ">2.4"}

Reported Ratio CC50/IC50 of O=C(c1cccc2c(-c3ccccc3)nnn12)c1cccc2c(-c3ccccc3)nnn12 : >4.5

Reported Ratio CC50/IC50 of O=C(c1cccc(-c2nnn3ccccc23)n1)c1cccc(-c2nnn3ccccc23)n1 : >10.2

Reported Ratio CC50/IC50 of O=C(c1cccc(C(=O)c2cccc(-c3nnn4ccccc34)n2)n1)c1cccc(-c2nnn3ccccc23)n1 : >10.4

---

- System: Leishmania braziliensis
- assayNotes: Antileishmanial activity against promastigote form of Leishmania braziliensis 2903 after 48 hrs by resazurin fluorescence assay
- Type: functional, organism-based
- recordedConditions: Leishmania braziliensis, 2903, 48 h
recordedEndpoint: IC50 (µM)
Give the quantity in µM, number only.

Recorded IC50, per entry:
{"compound": "CCCCCCCCCCCCCCCCOP(=O)([O-])OCC[N+](C)(C)C [MILTEFOSINE]", "IC50 (µM)": 27.1}
{"compound": "O=C(c1ccccn1)c1cccc(-c2nnn3ccccc23)n1", "IC50 (µM)": 190}
{"compound": "O=C(c1cccc(-c2nnn3ccccc23)n1)c1cccc(-c2nnn3ccccc23)n1", "IC50 (µM)": 26.8}
{"compound": "O=C(c1cccc2c(-c3ccccc3)nnn12)c1cccc2c(-c3ccccc3)nnn12", "IC50 (µM)": 56.8}
{"compound": "O=C(c1ccccn1)c1cccc2c(-c3ccccc3)nnn12", "IC50 (µM)": 169}

Now for another entry.
Reported IC50 of O=C(c1cccc(C(=O)c2cccc(-c3nnn4ccccc34)n2)n1)c1cccc(-c2nnn3ccccc23)n1 : 59.4
